B1: EDARADD (parent)
chain: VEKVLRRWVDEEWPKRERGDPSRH

variants of: B1; test: protein stability index of a GFP-peptide fusion (GPS, HEK-293T) (PSI 1-6); higher = more stable; conditions: c terminus: a fixed tail appended;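 note: lentivirally expressed fusions sorted by FACS into six bins by GFP to DsRed ratio, PSI derived from sequencing read proportions per bin multiplied by bin number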
Lab note: compare protein stability index against 3. Equal or greater, write yes. Smaller, write no.

Field: example entries. Status: answers known.
Mutant Designation: K15Q
Assigned Class: no
//
Mutant Designation: S22D
Assigned Class: yes
//
Mutant Designation: K3G
Assigned Class: yes
//
Mutant Designation: V9A
Assigned Class: yes
//
Mutant Designation: L5H
Assigned Class: yes

Next, consider the following variant.
QUERY: Tell me whether protein stability index is at least 3 here: W8P
RESULT: yes
